experiment summary: Heart rate and blood pressure in living rat
Assay type: in vivo, Wistar rats
condition notes: 1 mg/kg via femoral vein, anaesthetized rat
Lab note - cut at 80 mmHg for Lowering of Blood Pressure: met if strictly below, not met if not.

[[record]]
molecule = "COC(=O)C1=C(C)NC(C)=C(C(=O)OC)C1c1ccc(OCC(O)CNCCOc2ccccc2OC)c(OC)c1 (stereo not drawn)"
assigned_label = "met"

[[record]]
molecule = "COC(=O)C1=C(C)NC(C)=C(C(=O)OC)C1c1ccc(OCC(O)CNC(C)(C)C)c(OC)c1 (stereo not drawn)"
assigned_label = "met"

[[record]]
molecule = "CCOC(=O)C1=C(C)NC(C)=C(C(=O)OCC)C1c1cc([N+](=O)[O-])ccc1OCC(O)CNCCOc1ccccc1OC (stereo not drawn)"
assigned_label = "not met"

[[record]]
molecule = "CCCCNCC(O)COc1ccc(Cl)cc1C1C(C(=O)OCC)=C(C)NC(C)=C1C(=O)OCC (stereo not drawn)"
assigned_label = "met"

[[record]]
molecule = "CCOC(=O)C1=C(C)NC(C)=C(C(=O)OCC)C1c1cc(Cl)ccc1OCC(O)CNC(C)(C)C (stereo not drawn)"
assigned_label = "met"

